targetUnderTest: Nanoluciferase-BRD9 fusion protein (3×FLAG-NLuc-BRD9) in SYO-1 cells (Homo sapiens (Human), UniProt Q9H8M2)
Sequence (Q9H8M2 whole entry, the tested form may be a part): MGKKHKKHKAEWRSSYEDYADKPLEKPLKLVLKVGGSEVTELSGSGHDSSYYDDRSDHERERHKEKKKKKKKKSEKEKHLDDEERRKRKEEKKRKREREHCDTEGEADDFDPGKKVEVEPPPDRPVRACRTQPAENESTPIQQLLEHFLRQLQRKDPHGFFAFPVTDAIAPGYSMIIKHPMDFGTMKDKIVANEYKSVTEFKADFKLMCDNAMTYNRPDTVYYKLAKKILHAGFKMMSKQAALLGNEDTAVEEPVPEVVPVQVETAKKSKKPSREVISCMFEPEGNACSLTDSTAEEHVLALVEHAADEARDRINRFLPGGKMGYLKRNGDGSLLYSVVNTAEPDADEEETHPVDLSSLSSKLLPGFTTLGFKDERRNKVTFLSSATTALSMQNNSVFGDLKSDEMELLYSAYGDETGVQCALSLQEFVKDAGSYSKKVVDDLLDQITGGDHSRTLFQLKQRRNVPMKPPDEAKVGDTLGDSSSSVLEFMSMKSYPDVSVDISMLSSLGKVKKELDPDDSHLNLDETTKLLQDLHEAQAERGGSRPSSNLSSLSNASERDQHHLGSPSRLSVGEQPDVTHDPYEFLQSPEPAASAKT
assayProtocol: SYO1 BRD9 NanoLuc degradation assay
Type: cell-based
testConditions: SYO-1 cells expressing 3×FLAG-NLuc-BRD9, 6 hours incubation, top dose 1 μM
pIC50: −log10 of the molar value.
assayEndpoint: pIC50

Previously resolved entries follow.
molecule	pIC50
CNC(=O)N1CCc2c(-c3cc(OC)c(CN4CCC(CCN5CCC6(CC5)CC(Oc5ccc7c(c5)C(=O)N(C5CCC(=O)NC5=O)C7=O)C6)CC4)c(OC)c3)cn(C)c(=O)c2C1 (centres unmarked)	> 8.00
CNC(=O)N1CCc2c(-c3cc(OC)c(CN4CCC(CCN5CCN(c6cc7c(cc6F)C(=O)N(C6CCC(=O)NC6=O)C7)CC5)CC4)c(OC)c3)cn(C)c(=O)c2C1 (centres unmarked)	> 8.00
COc1cc(-c2cn(C)c(=O)c3c2CCN(C(=O)NC2CC4(CCN(CCCN5CCN(c6ccc7c(c6)C(=O)N(C6CCC(=O)NC6=O)C7=O)CC5)CC4)C2)C3)cc(OC)c1CN(C)C (centres unmarked)	≤ 6.00
CNC(=O)N1CCc2c(-c3cnc(CN4CCC(CCN5CCN(c6ccc7c(c6)C(=O)N(C6CCC(=O)NC6=O)C7=O)CC5)CC4)c(OC)c3)cn(C)c(=O)c2C1 (centres unmarked)	7.00 to 8.00

Now for another entry.
Prompt line: Look at this molecule and give its reported pIC50. CNC(=O)N1CCc2c(-c3cc(Cl)c(CN4CCN(CCC5CCN(c6ccc7c(c6)CN(C6CCC(=O)NC6=O)C7=O)CC5)CC4)c(OC)c3)cn(C)c(=O)c2C1 (centres unmarked)
Response line: > 8.00

* * *

targetUnderTest: Nanoluciferase-BRD9 fusion protein (3×FLAG-NLuc-BRD9) in SYO-1 cells (Homo sapiens (Human))
assayProtocol: SYO1 BRD9 NanoLuc degradation assay
Assay type: cell-based
testConditions: SYO-1 cells, 6 hours, Table 6C
Experimental: Procedure: A stable SYO-1 cell line expressing 3×FLAG-NLuc-BRD9 was generated. On day 0 cells were seeded in 30 μL media into each well of 384-well cell culture plates. The seeding density was 8000 cells/well. […] Nanoluciferase activity was measured by adding 15 μL of freshly prepared Nano-Glo Luciferase Assay Reagent (Promega N1130), shaking the plates for 10 minutes and reading the bioluminescence using an EnVision reader. […]
Quick reference: IC50 of the listed items.

Previously resolved entries follow.
molecule	valueObserved
CNC(=O)N1CCc2c(-c3cc(OC)c(C4CN(c5ccc6c(c5)CN(C5CCC(=O)NC5=O)C6=O)C4)c(OC)c3)cn(C)c(=O)c2C1 (stereo not drawn)	≥ 10 nM
COc1cc(-c2cn(C)c(=O)c3c2CCCN3)cc(OC)c1CN1CCC2(CC1)CN(c1ccc3c(c1)CN(C1CCC(=O)NC1=O)C3=O)C2 (stereo not drawn)	< 10 nM
CNC(=O)N1CCc2c(-c3cc(OC)c(CN4CCN(CCC5CCN(c6ccc7c(c6)CN(C6CCC(=O)NC6=O)C7=O)CC5(F)F)CC4)c(OC)c3)cn(C)c(=O)c2C1 (stereo not drawn)	< 10 nM

Prompt line: Look at this molecule and give its reported IC50. COc1cc(-c2cn(C)c(=O)c3c2COC3)cc(OC)c1CN1CCC(CN2CCC3(CC2)CN(c2ccc4c(c2)C(=O)N(C2CCC(=O)NC2=O)C4)C3)CC1 (stereo not drawn)
Response line: < 10 nM

Prompt line: Look at this molecule and give its reported IC50. CNC(=O)N1CCc2c(-c3cc(OC)c(CN4CCN(CCC5CCN(c6ccc7c(c6)C(=O)N(C6CCC(=O)NC6=O)C7)CC5)CC4(C)C)c(OC)c3)cn(C)c(=O)c2C1 (stereo not drawn)
Response line: < 10 nM

Prompt line: Look at this molecule and give its reported IC50. COc1cc(-c2cn(C)c(=O)c3c2CCCN3)cc(OC)c1CN1CCC2(CC1)CN(c1ccc3c(c1)C(=O)N(C1CCC(=O)NC1=O)C3=O)C2 (stereo not drawn)
Response line: ≥ 10 nM

* * *

targetUnderTest: Nanoluciferase-BRD9 fusion protein (3×FLAG-NLuc-BRD9) in SYO-1 cells (Homo sapiens (Human))
assayProtocol: SYO1 BRD9 NanoLuc degradation assay
Type: cell-based
testConditions: SYO-1 cells expressing 3×FLAG-NLuc-BRD9, 6 hours incubation, top dose 1 μM
assayEndpoint: IC50

compound	IC50
CNC(=O)N1CCc2c(-c3cc(OC)c(CN4CCC(CCN5CCN(c6ccc7c(c6)C(=O)N(C6CCC(=O)NC6=O)C7=O)CC5)C4)c(OC)c3)cn(C)c(=O)c2C1 (stereo not shown)	10 to 100 nM
COc1cc(-c2cn(C)c(=O)c3c2CCN(C(=O)NCCN2CCC(OCC4CCN(c5ccc6c(c5)C(=O)N(C5CCC(=O)NC5=O)C6=O)CC4)C2)C3)cc(OC)c1CN(C)C (stereo not shown)	100 to 1000 nM
CNC(=O)N1CCc2c(-c3cc(OC)c(CN4CCC5(CC4)CN(C(=O)CCN4CCN(c6ccc7c(c6)C(=O)N(C6CCC(=O)NC6=O)C7=O)CC4)CCO5)c(OC)c3)cn(C)c(=O)c2C1 (stereo not shown)	100 to 1000 nM
CNC(=O)N1CCc2c(-c3cc(OC)c(CN4CCN(c5ccc6c(c5)C(=O)N(C5CCC(=O)NC5=O)C6=O)CC4)c(OC)c3)cn(C)c(=O)c2C1 (stereo not shown)	< 10 nM
COc1cc(-c2cn(C)c(=O)c3c2CCN(C(=O)NCCCN2CCC4(CC2)CCN(c2ccc5c(c2)C(=O)N(C2CCC(=O)NC2=O)C5=O)C4)C3)cc(OC)c1CN(C)C (stereo not shown)	10 to 100 nM
CNC(=O)N1CCc2c(-c3cc(OC)c(C(C)N4CC(CN5CCC6(CC5)CN(c5ccc7c(c5)C(=O)N(C5CCC(=O)NC5=O)C7)C6)C4)c(OC)c3)cn(C)c(=O)c2C1 (stereo not shown)	10 to 100 nM
CNC(=O)N1CCc2c(-c3cc(OC)c(CN(C)C45CC(C(=O)NCCCCCOc6cccc7c6C(=O)N(C6CCC(=O)NC6=O)C7=O)(C4)C5)c(OC)c3)cn(C)c(=O)c2C1 (stereo not shown)	< 10 nM
CNC(=O)N1CCc2c(-c3cc(OC)c(CN4CCC(CN5Cc6cc7c(cc6C5)C(=O)N(C5CCC(=O)NC5=O)C7=O)CC4)c(OC)c3)cn(C)c(=O)c2C1 (stereo not shown)	< 10 nM
COc1cc(-c2cn(C)c(=O)c3c2CCN(C(=O)NC2CCC4(CCN(CCOc5ccc6c(c5)C(=O)N(C5CCC(=O)NC5=O)C6=O)C4)C2)C3)cc(OC)c1CN(C)C (stereo not shown)	100 to 1000 nM

Now for another entry.
Prompt line: Look at this compound and give its reported IC50. CNC(=O)N1CCc2c(-c3cc(OC)c(CN4CCC(CCN5CC6(C5)CN(c5ccc7c(c5)C(=O)N(C5CCC(=O)NC5=O)C7=O)C6)CC4)c(OC)c3)cn(C)c(=O)c2C1 (stereo not shown)
Response line: < 10 nM

* * *

Quick reference: pIC50 of the listed items.
targetUnderTest: Nanoluciferase-BRD9 fusion protein (3×FLAG-NLuc-BRD9) in SYO-1 cells (Homo sapiens (Human), UniProt Q9H8M2)
assayProtocol: SYO1 BRD9 NanoLuc degradation assay
Assay type: cell-based
testConditions: SYO-1 cells expressing 3×FLAG-NLuc-BRD9, 6 hours incubation, top dose 1 μM
pIC50: −log10 of the molar value.

Previously resolved entries follow.
molecule	pIC50
COc1cc(-c2cn(C)c(=O)c3c2CCN(C(=O)NCCN2CC4(CCN4c4ccc5c(c4)C(=O)N(C4CCC(=O)NC4=O)C5=O)C2)C3)cc(OC)c1CN(C)C (centres unmarked) [Compound D192]	6.00 to 7.00
[2H]C([2H])([2H])NC(=O)N1CCc2c(-c3cc(OC)c(CN4CCN(CCC5CCN(c6ccc7c(c6)C(=O)N(C6CCC(=O)NC6=O)C7=O)CC5)CC4)c(OC)c3)cn(C)c(=O)c2C1 (centres unmarked) [Compound D48]	> 8.00

Prompt line: Look at this molecule and give its reported pIC50. COc1cc(-c2cn(C)c(=O)c3c2CCN(C(=O)NC2C[C@@H]4CN(CCCOc5ccc6c(c5)C(=O)N(C5CCC(=O)NC5=O)C6=O)C[C@H]24)C3)cc(OC)c1CN(C)C (some centres unmarked) [Compound D248]
Response line: ≤ 6.00

Prompt line: Look at this molecule and give its reported pIC50. COc1cc(-c2cn(C)c(=O)c3c2CCN(C(=O)NCCN2CCC4C(C2)CN4c2ccc4c(c2)C(=O)N(C2CCC(=O)NC2=O)C4=O)C3)cc(OC)c1CN(C)C (centres unmarked) [Compound D187]
Response line: 7.00 to 8.00

Prompt line: Look at this molecule and give its reported pIC50. CNC(=O)N1CCc2c(-c3cc(OC)c(CN4CCC(CCN5CCN(c6ccc7c(c6F)C(=O)N(C6CCC(=O)NC6=O)C7=O)CC5)CC4)c(OC)c3)cn(C)c(=O)c2C1 (centres unmarked) [Compound D87]
Response line: > 8.00

Reference source for all entries: patent US12384776B2
